Target: postsynaptic alpha-adrenergic receptors (Rattus norvegicus, UniProt P43140)
Construct: causes contraction of the isolated vas deferens; from tissue; host or cells: isolated rat vas deferens
Sequence (P43140 1-466): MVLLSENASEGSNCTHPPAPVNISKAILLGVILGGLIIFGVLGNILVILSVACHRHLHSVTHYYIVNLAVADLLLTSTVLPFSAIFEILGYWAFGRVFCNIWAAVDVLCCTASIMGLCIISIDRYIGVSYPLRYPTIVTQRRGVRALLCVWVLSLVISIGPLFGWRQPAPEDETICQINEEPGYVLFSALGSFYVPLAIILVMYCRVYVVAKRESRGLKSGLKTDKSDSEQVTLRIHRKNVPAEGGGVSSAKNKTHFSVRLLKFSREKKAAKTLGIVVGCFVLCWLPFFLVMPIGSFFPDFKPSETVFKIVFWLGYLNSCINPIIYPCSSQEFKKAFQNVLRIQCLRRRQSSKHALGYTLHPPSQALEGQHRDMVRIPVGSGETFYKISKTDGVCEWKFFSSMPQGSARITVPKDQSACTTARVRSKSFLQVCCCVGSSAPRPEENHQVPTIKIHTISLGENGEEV
Assay: Alpha-blocking activity towards norepinephrine on isolated rat vas deferens
Type: biochemical
Conditions: -log of concentration requiring doubled norepinephrine, read-out: pA2 (converted)
Procedure: Stimulation of the postsynaptic alpha-adrenergic receptors by norepinephrine causes contraction of the isolated vas deferens. The concentration of product in whose presence the norepinephrine concentration must be doubled in order to obtain the same effect as in the absence of said product is determined. The logarithm of this concentration, with the opposite sign, constitutes the pA2 of the products. […]
Readout type: Kb (nM)
Provide only the numeric value, understood in nM.

Compound	Output unit	Measured number
Cc1ncsc1OCCN1CCN(c2cccc(C(F)(F)F)c2)CC1	nM	2570

Fill: Kb (postsynaptic alpha-adrenergic receptors (Rattus norvegicus, UniProt P43140)) for this compound CCCCCOc1ccccc1N1CCN(CC(O)COc2scnc2C)CC1 (centres unmarked)
7.94

Fill: Kb (postsynaptic alpha-adrenergic receptors (Rattus norvegicus, UniProt P43140)) for this compound Cc1ncsc1OCC(O)CN1CCN(c2ccccc2OCC(C)C)CC1 (centres unmarked)
7.41

Fill: Kb (postsynaptic alpha-adrenergic receptors (Rattus norvegicus, UniProt P43140)) for this compound CCOc1ccccc1N1CCN(CCOc2scnc2C)CC1
15.8

Fill: Kb (postsynaptic alpha-adrenergic receptors (Rattus norvegicus, UniProt P43140)) for this compound Cc1ncsc1OCC(O)CN1CCN(c2ccccc2O)CC1 (centres unmarked)
316

Fill: Kb (postsynaptic alpha-adrenergic receptors (Rattus norvegicus, UniProt P43140)) for this compound COc1ccccc1N1CCN(CCOc2scnc2C)CC1
269

Fill: Kb (postsynaptic alpha-adrenergic receptors (Rattus norvegicus, UniProt P43140)) for this compound Cc1ncsc1OCC(O)CN1CCN(c2ccccc2OC(C)C)CC1 (centres unmarked)
4.57

Fill: Kb (postsynaptic alpha-adrenergic receptors (Rattus norvegicus, UniProt P43140)) for this compound CCCOc1ccccc1N1CCN(CCOc2scnc2C)CC1
16.2

Fill: Kb (postsynaptic alpha-adrenergic receptors (Rattus norvegicus, UniProt P43140)) for this compound Cc1cc(Cl)ccc1N1CCN(CCOc2scnc2C)CC1
1350
